I'd appreciate it if you could supply melting point values for the items below.

INPUT: I would be grateful if you could share the reported melting point for N#CCCSCc1nccc(N)n1 .
OUTPUT: 106 to 109 °C

INPUT: Try this molecule next: C/C(=C(\C#N)C(N)=S)N1CCCN(c2cccc(C)c2)CC1
OUTPUT: 144 to 148 °C

INPUT: Quick one: C#CCNC(=NCCSCc1ccc(CN(C)C)o1)NC#N
OUTPUT: 122 to 124 °C

INPUT: Try this molecule too: CCCCCc1c(C(C)C)nc(C(C)C)c(CO)c1-c1cccc(Cl)c1
OUTPUT: 94 to 95 °C

INPUT: Follow-up entry: Cc1ccc(CSCCC(=O)O)cc1
OUTPUT: 75.8 °C

INPUT: Consider next the molecule Clc1cccc(Oc2ccc(OCc3ccc(Br)s3)cc2)n1 in the same way.
OUTPUT: 78 to 80 °C

INPUT: Check CC1(C)OC(=S)Nc2ccc(-c3ccccc3Cl)cc21 too.
OUTPUT: 171 to 172 °C

INPUT: Try the molecule Cc1ccc(-c2nc(C(F)(F)F)nn2-c2ccc(S(N)(=O)=O)cc2)cc1
OUTPUT: 245 to 247 °C

INPUT: Also, CSc1ccc(-c2oc3ccccc3c(=O)c2-c2ccc(C(F)(F)F)cc2)cc1 please.
OUTPUT: 189 to 192 °C

INPUT: How about this molecule: Cc1cccc2[nH]c3c(c12)CCOC3(C)CC(=O)O (stereo not drawn)
OUTPUT: 132 to 134 °C

INPUT: Also need CNC(=O)c1ccc2c(c1Nc1nc(Nc3ccc4c(c3)CCCC(=O)N4C)ncc1Cl)OCO2 , thanks.
OUTPUT: 254 to 256 °C

INPUT: Next molecule up: O=C1NN=C(c2ccc(C(F)(F)F)cc2)CC1C(F)(F)F (stereo not drawn)
OUTPUT: 135 to 136 °C

INPUT: Query O=P1(c2ccc(F)cc2)c2ccccc2CN1c1ccccc1 (stereo not drawn) next
OUTPUT: 119 to 120 °C

###

Kindly state melting point for each of the entries shown.

INPUT: Report melting point for Cc1cc(-n2ncc(=O)[nH]c2=O)cc(Cl)c1Oc1ccc(O)c(S(=O)(=O)c2ccccc2)c1 please.
OUTPUT: 78 to 81 °C

INPUT: And then Cn1cc(C(=O)NCc2ccc(Cl)cc2)c(=O)c2cc(CN3CCOCC3)cc(C#CCN3CCC(O)C3)c21 (stereo not drawn) , what is it?
OUTPUT: 144 to 146 °C

INPUT: Param item: Cn1ncc(C(=O)NC2COC2)c1C(=O)Nc1ccn2nc(-c3ccccc3)nc2c1
OUTPUT: > 250 °C

###

Consider the following molecules; for each one, report its melting point.

INPUT: Can you look up the measured melting point of CCCc1cc(C(C)=O)c(O)cc1OCCCCC(=O)O for me?
OUTPUT: 106 °C

INPUT: Okay, and COc1ccc(-c2nc3c(C(=O)NC4CC5CCCC(C4)N5C)cccc3o2)cc1 (stereo not drawn) ?
OUTPUT: 103 to 105 °C

INPUT: Repeat with N#CCc1c(Cl)ccc2cc(Cl)cnc12
OUTPUT: 152 °C

INPUT: And then CC(C)CCC1(c2ccccc2)CC(O)=C(Sc2ccccc2C(C)C)C(=O)O1 (stereo not drawn) , what is it?
OUTPUT: 64 to 66 °C

INPUT: Now the molecule O=C(O)CCCCCCCCc1nc(-c2ccccc2)c(-c2ccccc2)o1
OUTPUT: 83 to 85 °C

INPUT: Please do the same for Fc1cccc(F)c1C1=NC(c2cc3sc(-c4ccc(OC(F)(F)F)cc4)cc3s2)CC1 (stereo not drawn) as well.
OUTPUT: 135 °C

INPUT: Another molecule: CCOc1ccc(CCCCCCC(=O)O)cc1
OUTPUT: 65 to 66 °C

INPUT: Continue with CCOC(=O)Cc1ccc(Cc2nc3n(-c4c(Cl)cccc4Cl)[nH]c(C(C)C)c-3c(=O)n2)cc1
OUTPUT: 168 to 169 °C

INPUT: // next record Clc1ccc2c(c1)N=C(N1CCN(C3CC3)CC1)c1ccccc1N2
OUTPUT: 196 to 199 °C

INPUT: Would you mind doing O=C1C(c2ccccc2)N(c2ccc(Oc3ccccc3)cc2)C(=S)N1c1ccccc1 (stereo not drawn) as well?
OUTPUT: 100 °C

INPUT: Same read-out for Cc1ccc(CC2CCN(C(=O)NC(=O)c3ccc(OCc4ccccc4)cc3)CC2)cc1 ?
OUTPUT: 204 to 208 °C

INPUT: Item: O=C1CCCC(=O)N1CCCn1c2ccccc2c2nc3ccccc3nc21
OUTPUT: 312 to 314 °C

INPUT: Another molecule to check: CC1CC1n1cc(C(=O)O)c(=O)c2cc(F)c(N3CCC(N)C3)c(F)c21 (stereo not drawn)
OUTPUT: 267 to 275 °C

INPUT: Another molecule to check: O=C(O)CCCCn1ccnc1
OUTPUT: 157 to 158 °C

INPUT: Proceed to CC(C)(C)OC(=O)NN1CCN([Si](C)(C)C)C1=O
OUTPUT: 132 °C

INPUT: And the next one, CC(C)(C)OC(=O)N[C@@H](Cc1ccc(-c2ccccc2)cc1)c1nnnn1CCC#N ?
OUTPUT: 184 to 185 °C

INPUT: // same read-out, input: CC(=O)NCc1ccc(CN2CCN(c3cccc(C)c3)CC2)cc1
OUTPUT: 80 to 81 °C

INPUT: Let us now turn to C[N+](C)([O-])S(=O)(=O)c1ccc2c(c1)N(C1CN3CCC1CC3)c1ccccc1S2=O (stereo not drawn)
OUTPUT: 130 °C

INPUT: CCCCCc1ccc(-c2ncc([C@H]3CC[C@H](CCC)CC3)cn2)cc1 , same question.
OUTPUT: 93.5 °C

INPUT: Also CC(=O)N1CCN(c2ccc(C3CCS(=O)(=O)NC3)cc2)CC1 (stereo not drawn) , if possible.
OUTPUT: 196 to 197 °C

INPUT: Now give it for Cc1ccc2c(c1)C1(CCN(CCCC(=O)c3ccc(F)cc3)C1)CC2O (stereo not drawn) too.
OUTPUT: 172 to 174 °C

INPUT: Same read-out for CC(=O)OC1(C(=O)COC(=O)CC(C)C)CCC2C3CC(C)C4=CC(=O)C=CC4(C)C3C(O)CC21C (stereo not drawn) ?
OUTPUT: 126 to 130 °C

INPUT: Same question, CCOC(=O)c1ccc(OCCCCCCCCCCBr)cc1 this time
OUTPUT: 41 to 42 °C

###

OBSERVED_PROPERTY: melting point

INPUT: Looking for the measured melting point of CC1=CCCN(C)C1COC(=O)c1c[nH]c2ccccc12 (stereo not drawn) , can you help?
OUTPUT: 172 °C

INPUT: Can you check CCCc1ccc(OCCN(C(=O)n2cccn2)c2ncnc3ccccc23)c(C)c1 next?
OUTPUT: 114 to 115 °C

INPUT: Quick one: FC(F)(F)c1ccc(COc2ncncc2Oc2ccccc2)cc1
OUTPUT: 56 to 57 °C

INPUT: Now the compound CCCCCCCCCCCCCCCCCC(=O)NC(C)C(=O)NC(CCC(=O)NC(C=CCCC(=O)O)C(=O)O)C(=O)O (stereo not drawn)
OUTPUT: 200 °C

INPUT: Now this one: CCOC(=O)/C=C/c1ccc(OCCC2(C)OCCO2)cc1Oc1ncc(C(F)(F)F)cc1Cl
OUTPUT: 90 to 91 °C

INPUT: Follow-up item: COc1ccc(S(=O)(=O)Nc2cccc3c2N(C)c2ccccc2O3)cc1
OUTPUT: 151 to 153 °C

INPUT: Proceed to Cc1csc(N2CCN(CC(O)c3ccc(O)c(C(N)=O)c3)CC2)n1 (stereo not drawn)
OUTPUT: 182 °C

INPUT: Do the same for O=C(NCCNCCNC(=O)C(F)(F)F)C(F)(F)F please
OUTPUT: 68 to 70 °C

###

Would you mind telling me the reported melting point of each entry?

INPUT: Which measured melting point value corresponds to CONC(=O)Nc1ccc(-c2nc3n(Cc4c(F)cccc4F)cc(C(=O)OC(C)C)c(=O)n3c2CN(C)Cc2ccccc2)cc1 ?
OUTPUT: 156 to 158 °C

INPUT: Same read-out for COC(=O)C(C)Oc1ccc(N(C)c2nnc3cc(Cl)ccc3n2)cc1 (configuration not stated) ?
OUTPUT: 120 °C

INPUT: What about this compound? O=S(=O)(Nc1cccc2c(Cl)c[nH]c12)c1cccc(Cl)c1
OUTPUT: 180 to 181 °C

INPUT: Further, for Cc1cc(Nc2ccc(Cl)cc2)nc(-n2nc(C)cc2C)n1 ?
OUTPUT: 181 to 183 °C

INPUT: What about Cc1cccc(Nc2cc(Cl)nc(SCC(N)=O)n2)c1C ?
OUTPUT: 188 to 191 °C

INPUT: Another: COc1cc2c(cc1OC)[C@@H]1CCCC[C@@H]1N=C2c1ccc(N(S(=O)(=O)c2ccc([N+](=O)[O-])cc2)S(=O)(=O)c2ccc([N+](=O)[O-])cc2)cc1 (racemic)
OUTPUT: 234 °C

INPUT: Another: COc1ccccc1N1CCN(C2(C(=O)c3ccc(Cl)cc3)CC2)CC1
OUTPUT: 103 to 104 °C

INPUT: Input O=C(NCCOc1ccc(CC(Oc2ccccc2)C(=O)O)cc1)c1ccc(-c2ccccn2)cc1 (configuration not stated)
OUTPUT: 149 to 151 °C

INPUT: Lookup O=c1[nH]c2ccc([N+](=O)[O-])cc2c(O)c1[N+](=O)[O-]
OUTPUT: 197 to 198 °C

INPUT: Then what about the compound CC(=O)NS(=O)(=O)c1ccc(NC(=O)c2ccccc2SSc2ccccc2C(=O)Nc2ccc(S(=O)(=O)NC(C)=O)cc2)cc1 ?
OUTPUT: 180 to 182 °C

INPUT: Again, but for CCN(CC)C(=O)c1ccc(Cl)c(Cl)c1Br
OUTPUT: 196 °C

INPUT: Cool, now O=[N+]([O-])c1cc(Cc2ccc[nH]2)cc(O)c1O
OUTPUT: 115 to 118 °C

INPUT: Same question for COc1nc(C)c(C)nc1NC(=O)N1CCN(c2c(C)c(C)cc(C)c2C)CC1 please.
OUTPUT: 202 to 204 °C

INPUT: Next: CCCOc1cc(CCCO)n(Cc2ccc(F)cc2F)n1
OUTPUT: 66 to 67 °C

INPUT: Also, CCOC(=O)c1cn2c(cc(Br)c3ccccc32)n1 please.
OUTPUT: 205 to 207 °C

INPUT: Next compound: COc1ccc(N2CCN(c3c(C)c(C)c4c(c3C)C(O)C(C)(C)O4)CC2)cc1 (configuration not stated)
OUTPUT: 159 to 161 °C

INPUT: # repeat for CC1OC(Cn2cncn2)(c2ccc(Cl)cc2Cl)CN1S(=O)(=O)c1ccc(C(F)(F)F)cc1 (configuration not stated)
OUTPUT: 188 to 190 °C

INPUT: Now the compound Fc1ccc(-c2cc(-c3ccc(F)cc3)nc(Nc3ccc(OC(F)(F)F)cc3)n2)cc1
OUTPUT: 148 to 150 °C

INPUT: Try the compound C#CCN1C(=O)N(c2ccc(C#N)c(C(F)(F)F)c2)C(=O)C1(CO)CO
OUTPUT: 125 to 126 °C

INPUT: Now try CC(C#N)(COc1ccc(Cl)cc1Cc1ccccc1)NC(=O)c1ccc(OC(F)(F)F)cc1 (configuration not stated) .
OUTPUT: 103 to 104 °C

INPUT: And then O=C(O)c1ccc(N2C(=O)c3ccc([N+](=O)[O-])cc3C2=O)cc1 , what is it?
OUTPUT: 331 to 332 °C

INPUT: Again, but for CCOC(=O)c1cnn(-c2cccc(Cl)c2)c1Cl
OUTPUT: 61 to 63 °C
